Hi there, I'd appreciate the recorded pIC50 for every entry that follows.
Biological target: GST-fused human Keap1 (amino acid residues: 325-642) protein (Homo sapiens (Human))
Sequence (Q14145 325-624 limits assumed): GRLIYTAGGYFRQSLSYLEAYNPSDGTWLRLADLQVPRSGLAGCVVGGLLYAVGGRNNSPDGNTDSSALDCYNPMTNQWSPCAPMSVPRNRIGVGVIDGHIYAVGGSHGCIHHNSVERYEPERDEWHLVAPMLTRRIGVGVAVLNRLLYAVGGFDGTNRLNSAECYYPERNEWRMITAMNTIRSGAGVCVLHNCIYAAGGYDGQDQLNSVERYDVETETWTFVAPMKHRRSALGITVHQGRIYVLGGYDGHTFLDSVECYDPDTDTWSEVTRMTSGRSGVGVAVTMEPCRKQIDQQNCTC
pIC50: −log10 of the molar value.

Example entries and their recorded answers appear below.
Molecule	pIC50
CC[C@@H]1CN(Cc2cc(C(CC(=O)O)c3ccc4c(nnn4C)c3C)cc3ccsc23)Cc2ncc(O)cc2O1 (single isomer, unassigned) [Example 65]	6.52 to 7.52
CC[C@@H]1CN(Cc2cc(C(CC(=O)O)c3ccc4c(nnn4C)c3C)cc3ccsc23)Cc2ncc(O)cc2O1 (single isomer, unassigned) [Example 66]	6.52 to 7.52
Cc1c([C@H](CC(=O)O)c2cc(CN3Cc4nc(O)ccc4CC(C4CC4)C3)c3sccc3c2)cnc2c1nnn2C (single isomer, unassigned) [Example 90]	6.52 to 7.52
CC[C@@H]1CN(Cc2cc([C@H](CC(=O)O)c3cc(OC(F)(F)F)c4c(nnn4C)c3C)cc3ccsc23)Cc2nc(O)ccc2O1	≥ 8.00
CC[C@@H]1CN(Cc2cc([C@@H](CC(=O)O)c3cc(OC(F)F)c4c(nnn4C)c3C)cc3ccsc23)Cc2nc(O)ccc2O1	7.52 to 8.00

Lab note: each molecule below needs its pIC50 filled in.
1. CC[C@@H]1CN(Cc2cc([C@@H](c3ccc4c(nnn4C)c3C)C(C)(C)C(=O)O)cc3ccsc23)Cc2nc(O)ccc2O1
2. CC[C@H]1Cc2ccc(O)nc2CN(Cc2cc([C@H](CC(=O)O)c3cnc4c(nnn4C)c3C)cc3ccsc23)C1
3. Cc1c([C@H](c2cc(CN3Cc4nc(O)ccc4O[C@H](C4CC4)C3)c3sccc3c2)C(C)(C)C(=O)O)ccc2c1nnn2C
4. Cc1c([C@@H](c2cc(CN3Cc4nc(O)ccc4OC4(CC4)C3)c3sccc3c2)C(C)(C)C(=O)O)ccc2c1nnn2C
5. CC[C@@H]1Cc2cccnc2CN(Cc2cc(C(CC(=O)O)c3ccc4c(nnn4C)c3C)cc3ccsc23)C1 (stereo partly shown)
6. CC[C@@H]1CN(Cc2cc([C@@H](c3cnc4c(nnn4C)c3C)C(C)(C)C(=O)O)cc3ccsc23)Cc2nc(O)ccc2O1
7. Cc1c([C@@H](CC(=O)O)c2cc(CN3Cc4c(ccnc4O)OC4(CC4)C3)c3sccc3c2)ccc2c1nnn2C
8. Cc1c([C@@H](CC(=O)O)c2cc(CN3Cc4nc(O)ccc4O[C@H](C4CC4)C3)c3sccc3c2)cnc2c1nnn2C

1. ≥ 8.00
2. 7.52 to 8.00
3. ≥ 8.00
4. 5.52 to 6.52
5. 6.52 to 7.52
6. 7.52 to 8.00
7. 7.52 to 8.00
8. 6.52 to 7.52

Data credit: patent US20250296939A1
